Data provenance is ChEMBL document CHEMBL5543065.

Test system: HCT-116
method-description: Antiproliferative activity against human HCT-116 cells assessed as reduction in cell viability incubated for 24 hrs by CCK-8 assay
Format: functional, cell-based
assay-conditions: HCT-116, 24 h
observable: IC50 (nM)
Respond with the bare value in nM.

GET /values?readout=IC50&item= `O=C1c2ccccc2C(=O)c2c(-c3ccccc3F)noc21` 350
